experimental-system: recombinant human plasminogen activator inhibitor-1 (PAI-1) (Homo sapiens, UniProt P05121)
Construct: purchased Molecular Innovations, Royal Oak, Mich
Sequence (P05121 24-402): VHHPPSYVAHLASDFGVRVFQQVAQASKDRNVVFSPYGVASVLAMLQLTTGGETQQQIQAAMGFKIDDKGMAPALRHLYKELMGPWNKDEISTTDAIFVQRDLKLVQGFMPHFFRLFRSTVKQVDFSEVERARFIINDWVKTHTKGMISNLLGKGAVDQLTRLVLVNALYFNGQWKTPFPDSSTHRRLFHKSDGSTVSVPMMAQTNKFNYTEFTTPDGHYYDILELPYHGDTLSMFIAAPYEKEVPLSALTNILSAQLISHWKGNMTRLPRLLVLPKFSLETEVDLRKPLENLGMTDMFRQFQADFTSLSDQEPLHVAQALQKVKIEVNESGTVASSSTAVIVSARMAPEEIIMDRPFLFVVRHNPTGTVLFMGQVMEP
experimental-protocol: Primary Screen for the PAI-1 Inhibition (residual tPA activity, Spectrozyme-tPA chromogenic substrate)
Type: biochemical
test-settings: 10 μM test compound; pH 6.6 buffer
# if value of inhibition at 10 µM reaches 10%, tag Met; if it stays below, tag Not met

INSERT INTO results (molecule, answer_label) VALUES
  ('CCCCc1oc2ccccc2c1-c1ncc(-c2ccc3cc(OCc4ccc(C(=O)O)cc4)ccc3c2)o1', 'Met');

State whether the measured inhibition at 10 µM reaches 10%, counting equality as reaching it, for `Cn1cc(-c2ncc(-c3ccc4cc(OCC(=O)O)ccc4c3)o2)c2ccccc21`
Not met

State whether the measured inhibition at 10 µM reaches 10%, counting equality as reaching it, for `CCCCc1oc2ccccc2c1-c1ncc(-c2ccc3cc(OCc4ccc(C(=O)O)cc4C(=O)O)ccc3c2)o1`
Met

State whether the measured inhibition at 10 µM reaches 10%, counting equality as reaching it, for `c1ccc(-c2ncc(-c3ccc4cc(OCc5nnn[nH]5)ccc4c3)o2)cc1`
Met

State whether the measured inhibition at 10 µM reaches 10%, counting equality as reaching it, for CCCCc1oc2ccccc2c1-c1ncc(-c2ccc3cc(OC(Cc4ccccc4)C(=O)O)ccc3c2)o1 (stereo not drawn)
Met

State whether the measured inhibition at 10 µM reaches 10%, counting equality as reaching it, for `CCCCc1oc2ccccc2c1-c1ncc(-c2ccc3c(Br)c(OCc4ccc(C(=O)O)cc4)ccc3c2)o1`
Met
